molecular target: KRas G12V (Homo sapiens, UniProt P01116, G12V); test: biochemical;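 note: KRas binding measured by TR-FRET displacement at room temperature, IC50 fitted from percent of control values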
Sequence (P01116 1-169 isoform P01116-2 G12V): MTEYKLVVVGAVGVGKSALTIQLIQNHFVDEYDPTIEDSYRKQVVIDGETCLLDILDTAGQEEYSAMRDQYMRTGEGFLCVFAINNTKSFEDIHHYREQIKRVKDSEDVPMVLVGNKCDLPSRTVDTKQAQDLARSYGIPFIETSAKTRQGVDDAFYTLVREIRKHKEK
measure_name: IC50 (µM)

// worked examples, IC50 included
CN(C)C(=O)c1cc2n(n1)CCCN(c1nc(OCC34CCCN3CCC4)nc3c(F)c(-c4cccc5cccc(F)c45)ncc13)C2 [Example 260] ... 0.204
CCc1cccc2cccc(-c3ncc4c(N5CCCC6(C5)NC(=O)NC6=O)nc(OCC56CCCN5CCC6)nc4c3F)c12 (stereo not shown) [Example 293] ... 0.004
OC1CCCN(c2nc(OCC34CCCN3CCC4)nc3c(F)c(-c4cccc5cccc(F)c45)ncc23)CC1 (stereo not shown) [Example 8] ... 2.63
C#Cc1cccc2cccc(-c3ncc4c(N5C[C@@H]6C(=O)NC(=O)[C@@H]6C5)nc(OCC56CCCN5CCC6)nc4c3F)c12 [Example 458] ... 0.039

a: CCc1cccc2cccc(-c3ncc4c(N5CCCC(CS(N)(=O)=O)C5)nc(OCC56CCCN5CCC6)nc4c3F)c12 (stereo not shown) [Example 285]
b: NC(=O)C1CCCN(c2nc(OCC34CCCN3CCC4)nc3c(F)c(-c4cccc5cccc(F)c45)ncc23)C1 (stereo not shown) [Example 86]
c: CCc1c(F)ccc2cc(O)cc(-c3ncc4c(N5CCC[C@@H](O)[C@H]5C)nc(OC[C@@]56CCCN5C[C@H](F)C6)nc4c3F)c12 [Example 181]
Enquiry: Rank ascending by IC50. Labels, requested order.
Return: c, a, b

Recorded values, source patent US12398154B2.
